- Tested on: 769-P
- PROTOCOL_NOTES: minimum viability across doses, drug + dasatinib, relative to DMSO (fraction); higher = less growth inhibition
- EXPERIMENTAL_CONDITIONS: treatment: drug + dasatinib (fixed dose, not stated); 5 days
Here, each record is paired with measured minimum viability across doses data.
Lab note: record the figure alone, no unit after it.

Please review the following examples before continuing.
MOLECULE	ASSAY_RESULT
CS(=O)c1ccc(-c2nc(-c3ccc(F)cc3)c(-c3ccncc3)[nH]2)cc1 (stereo not given) + Cc1nc(Nc2ncc(C(=O)Nc3c(C)cccc3Cl)s2)cc(N2CCN(CCO)CC2)n1	0.593
COc1cc(OC)c(/C=C/S(=O)(=O)Cc2ccc(OC)c(NCC(=O)[O][Na])c2)c(OC)c1 + Cc1nc(Nc2ncc(C(=O)Nc3c(C)cccc3Cl)s2)cc(N2CCN(CCO)CC2)n1	0.0648
CC(C)c1cnn2c(NCc3ccccc3)cc(NCCCCCCN)nc12.Cl [BS-181 HCl] + Cc1nc(Nc2ncc(C(=O)Nc3c(C)cccc3Cl)s2)cc(N2CCN(CCO)CC2)n1	0.672

Given C[C@@H](Oc1cc(-c2cnn(C3CCNCC3)c2)cnc1N)c1c(Cl)ccc(F)c1Cl + Cc1nc(Nc2ncc(C(=O)Nc3c(C)cccc3Cl)s2)cc(N2CCN(CCO)CC2)n1 , state its recorded minimum viability across doses. 0.0606

Given CS(=O)(=O)N1CCN(Cc2cc3nc(-c4cccc5[nH]ncc45)nc(N4CCOCC4)c3s2)CC1 [GDC-0941] + Cc1nc(Nc2ncc(C(=O)Nc3c(C)cccc3Cl)s2)cc(N2CCN(CCO)CC2)n1 , state its recorded minimum viability across doses. 0.111
